Values from PubChem BioAssay (EPA / NIEHS)

read-out: ATP-citrate lyase (ACLY), ACLY (gene 47); assay: LTEA_HepaRG_ACLY: Life Technologies and Expression Analysis (LTEA) Assay for ATP-citrate lyase (ACLY) using HepaRG (AID 2283466); details: mRNA level, 48 h; actives raise or lower the signal
The source made the active and inactive calls. Rule for the calls: active = hit-call score of the fitted dose curve at least 0.9, where 1 is the maximum; inactive = score below 0.9.
Choose one outcome from this list and give only that: TRUE for active, FALSE for inactive

| Compound | Class |
| --- | --- |
| ClC1=C(Cl)[C@]2(Cl)[C@H]3[C@H]([C@@H]4C=C[C@H]3C4)[C@@]1(Cl)C2(Cl)Cl | FALSE |
| Clc1ccccc1Cl | FALSE |
| c1ccc(NNc2ccccc2)cc1 | FALSE |
| Nc1ccc(Oc2ccc(N)cc2)cc1 | FALSE |
| CC(O)CCO (configuration not stated) | FALSE |

Q: GET /call?item= CCCCCOC(=O)c1ccccc1C(=O)OCCCCC returns the recorded outcome of this test.
Result: FALSE

###

assay: CCTE_Simmons_MITO_basal_resp_rate: CCTE's HepG2 Seahorse XF Respirometric Screening Assay at Basal Respiratory State, Simmons Lab (AID 2284001); settings: actives raise or lower the signal
Active and inactive are the calls of the source. Rule for the calls: active = hit-call score of the fitted dose curve at least 0.9, where 1 is the maximum; inactive = score below 0.9.
Choose one outcome from this list and give only that: active, inactive

# count of solved cases: 3
| Compound | Class |
| --- | --- |
| C[C@]12C=CC3=C4CCC(=O)C=C4CC[C@H]3[C@@H]1CC[C@@H]2O | inactive |
| Nc1ccc(N=Nc2ccccc2)cc1 | inactive |
| CC(C)N(Cc1ccccc1)C(=O)C(C)(C)C | active |

Q: GET /call?item= CCCCCCCCn1sccc1=O returns the recorded outcome of this test.
Result: inactive

Q: GET /call?item= CCC(C)c1ccc(O)cc1 (configuration not stated) returns the recorded outcome of this test.
Result: active

Q: GET /call?item= Cc1cc(N=Nc2ccccc2C)ccc1N returns the recorded outcome of this test.
Result: active

Q: GET /call?item= CC(C)COC(=O)c1ccccc1C(=O)OCC(C)C returns the recorded outcome of this test.
Result: active

###

test: ACEA_ER_AUC_viability: ACEA Biosciences xCELLigence Real-Time Cell Analysis on Estrogen Receptor Agonism for Viability (AID 2283782);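 note: continuous compound exposure with impedance area under curve over 80 h; hit means loss of impedance signal meaning reduced cell growth or viability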
Inconclusive results are not listed. Calls of active or inactive are those of the source. How the source made its calls: active means hit-call score of the fitted dose curve at least 0.9, where 1 is the maximum; inconclusive means response in the unintended direction; inactive means score below 0.9.
Recorded Metric: AC50

See these solved cases before continuing.
| Compound | AC50 |
| --- | --- |
| OCCCl | inactive |
| CC(C)COC(=O)c1ccccc1C(=O)OCC(C)C | inactive |
| c1ccc(NNc2ccccc2)cc1 | inactive |
| Clc1ccc(C(c2ccc(Cl)cc2)C(Cl)Cl)cc1 | 26.1 µM (active) |

Q: Assign AC50 to the following record: COC(=O)Nc1nc2ccccc2[nH]1
Result: 16.5 µM (active)

Q: Assign AC50 to the following record: c1ccc2c(c1)-c1cccc3cccc-2c13
Result: inactive

Q: Assign AC50 to the following record: CS(=O)(=O)NC(=O)c1cc(Oc2ccc(C(F)(F)F)cc2Cl)ccc1[N+](=O)[O-]
Result: inactive

Q: Assign AC50 to the following record: C[N+](C)(C)CC1CO1 (stereo not given)
Result: inactive

Q: Assign AC50 to the following record: CC(C)(C)C(O)(CCc1ccc(Cl)cc1)Cn1cncn1 (stereo not given)
Result: 69.2 µM (active)

###

read-out: Glutathione S-transferase M3 (GSTM3), GSTM3 (gene 2947); assay: LTEA_HepaRG_GSTM3: Life Technologies and Expression Analysis (LTEA) Assay for Glutathione S-transferase M3 (GSTM3) using HepaRG (AID 2283501); conditions: mRNA level, 48 h; actives raise or lower the signal
Active and inactive are the calls of the source. How the source made its calls: active means hit-call score of the fitted dose curve at least 0.9, where 1 is the maximum; inactive means score below 0.9.
Choose one outcome from this list and give only that: 1 for active, -1 for inactive

| Compound | Class |
| --- | --- |
| CS(=O)(=O)NC(=O)c1cc(Oc2ccc(C(F)(F)F)cc2Cl)ccc1[N+](=O)[O-] | -1 |
| CC(C)(C)OOC(C)(C)CCC(C)(C)OOC(C)(C)C | -1 |
| CCOc1cccc(C2(N3CCN(c4ccccc4)CC3)CCC(C)CC2)c1 (stereo not drawn) | -1 |

Q: GET /call?item= CCNS(=O)(=O)C(F)(F)C(F)(F)C(F)(F)C(F)(F)C(F)(F)C(F)(F)C(F)(F)C(F)(F)F returns the recorded outcome of this test.
Result: -1

Q: GET /call?item= Nc1ccc(Cc2ccc(N)cc2)cc1 returns the recorded outcome of this test.
Result: -1

Q: GET /call?item= c1ccc2c(c1)-c1cccc3cccc-2c13 returns the recorded outcome of this test.
Result: -1

Q: GET /call?item= C[C@]12C=CC3=C4CCC(=O)C=C4CC[C@H]3[C@@H]1CC[C@@H]2O returns the recorded outcome of this test.
Result: -1

Q: GET /call?item= C[N+](C)(C)CC1CO1 (stereo not drawn) returns the recorded outcome of this test.
Result: -1

###

experiment: TAMU_HCS_1.5hr_SingleDonor1434_Cytotoxicity: Cytotoxicity Assessment using High-content Screening (HCS) Fluorescent Imaging for the Texas A&M University (TAMU) 1.5-hr Human Induced Pluripotent Stem Cell (iPSC)-derived Cardiotoxicity Assay (AID 2284234)
Results filed as inconclusive are left out. The source made the active and inactive calls. Rule for the calls: active = hit-call score of the fitted dose curve at least 0.9, where 1 is the maximum; inconclusive = response in the unintended direction; inactive = score below 0.9.
Choose one outcome from this list and give only that: 1 = active, -1 = inactive

# count of solved cases: 3
| Molecular String | Class |
| --- | --- |
| CCCCCCCCn1sccc1=O | 1 |
| C1=Cc2cccc3cccc1c23 | -1 |
| Clc1ccc(C(c2ccc(Cl)cc2)C(Cl)(Cl)Cl)cc1 | 1 |

Continue with the next molecule.
Q: GET /call?item= ClC1=C(Cl)[C@]2(Cl)[C@H]3[C@H]([C@@H]4C=C[C@H]3C4)[C@@]1(Cl)C2(Cl)Cl returns the recorded outcome of this test.
Result: 1

###

molecular target: Bile acid receptor (Homo sapiens) (UniProt Q96RI1); test: ATG_IR1_CIS: Attagene CIS-FACTORIAL HepG2 Assay for human Nuclear Receptor Subfamily 1 Group H Member 4 (NR1H4), IR1 submotif (AID 2282946); details: IR1 reporter transcription, actives raise or lower the signal
Sequence (Q96RI1 whole entry, looked up): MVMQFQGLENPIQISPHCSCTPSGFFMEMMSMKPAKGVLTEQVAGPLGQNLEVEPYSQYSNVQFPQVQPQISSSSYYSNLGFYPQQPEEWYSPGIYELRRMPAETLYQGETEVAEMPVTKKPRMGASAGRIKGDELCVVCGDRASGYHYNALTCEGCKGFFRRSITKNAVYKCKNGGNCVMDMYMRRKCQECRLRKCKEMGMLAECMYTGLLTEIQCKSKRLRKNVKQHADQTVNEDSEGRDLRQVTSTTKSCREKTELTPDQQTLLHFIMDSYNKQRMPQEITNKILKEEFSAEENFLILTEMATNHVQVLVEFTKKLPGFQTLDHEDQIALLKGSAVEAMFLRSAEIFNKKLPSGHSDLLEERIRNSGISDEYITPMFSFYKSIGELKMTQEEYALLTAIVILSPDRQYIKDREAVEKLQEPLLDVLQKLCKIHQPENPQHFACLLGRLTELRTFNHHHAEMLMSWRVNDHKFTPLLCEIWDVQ
Calls of active or inactive are those of the source. How the source made its calls: active means hit-call score of the fitted dose curve at least 0.9, where 1 is the maximum; inactive means score below 0.9.
Choose one outcome from this list and give only that: Y = active, N = inactive

| Molecular String | Class |
| --- | --- |
| Clc1ccc(C(c2ccc(Cl)cc2)C(Cl)(Cl)Cl)cc1 | N |

Q: GET /call?item= CN(C)c1ccccc1 returns the recorded outcome of this test.
Result: N

Q: GET /call?item= Clc1ccc(C(c2ccc(Cl)cc2)C(Cl)Cl)cc1 returns the recorded outcome of this test.
Result: Y

Q: GET /call?item= N#CC(Br)Br returns the recorded outcome of this test.
Result: N

Q: GET /call?item= CCNS(=O)(=O)C(F)(F)C(F)(F)C(F)(F)C(F)(F)C(F)(F)C(F)(F)C(F)(F)C(F)(F)F returns the recorded outcome of this test.
Result: N

###

read-out: Lipoprotein lipase (LPL), LPL (gene 4023); test: LTEA_HepaRG_LPL: Life Technologies and Expression Analysis (LTEA) Assay for Lipoprotein lipase (LPL) using HepaRG (AID 2283515); settings: mRNA level, 48 h; actives raise or lower the signal
Active and inactive are the calls of the source. Rule for the calls: active = hit-call score of the fitted dose curve at least 0.9, where 1 is the maximum; inactive = score below 0.9.
Recorded Metric: AC50

| Compound | AC50 |
| --- | --- |
| O=[N+]([O-])C(Br)(CO)CO | inactive |
| N#CC(Br)Br | inactive |
| O=C(Nc1ccccc1)c1ccccc1I | inactive |
| CC(C)(C)C(O)(CCc1ccc(Cl)cc1)Cn1cncn1 (stereo not given) | 74.4 µM (active) |

Switching to the query record.
Q: Assign AC50 to the following record: OCCCBr
Result: inactive

###

Assay: ATG_GATA_CIS: Attagene CIS-FACTORIAL HepG2 Assay for human GATA Binding Protein (AID 2282944)
Conditions: HepG2 GATA cis-element reporter, Attagene multiplex mRNA; actives raise or lower the signal
Method: ATG_CIS is a cell-based, multiplexed-readout assay that uses HepG2, a human liver cell line, with measurements taken at 24 hours after chemical dosing in a 24-well plate.ATG_GATA_CIS is one of 52 assay component(s) measured or calculated from the ATG_CIS assay. […] This assay endpoint, ATG_GATA_CIS, was analyzed with bidirectional fitting relative to DMSO as the negative control and baseline of activity. […]
The source made the active and inactive calls. The calls were made as follows: active = hit-call score of the fitted dose curve at least 0.9, where 1 is the maximum; inactive = score below 0.9.
Recorded Metric: AC50

See these solved cases before continuing.
| Molecule | AC50 |
| --- | --- |
| O=C(Nc1ccccc1)c1ccccc1I | inactive |
| c1ccc(C2CO2)cc1 (stereo not drawn) | inactive |
| CCC(C)c1ccc(O)cc1 (stereo not drawn) | inactive |
| Clc1ccccc1Cl | inactive |
| [As]#[In] | inactive |
| CCC[CH2][Sn]([Cl])([CH2]CCC)[CH2]CCC | inactive |
| CCCCCCCCn1sccc1=O | 18.4 µM (active) |
| [O-][Cl+]O | inactive |
| O=C(Oc1ccc(Br)cc1)N1CCN2CCC1CC2 | inactive |
| COc1cc(C=O)cc2c1[C@H](COC(N)=O)[C@]1(OC(C)=O)ON2C[C@H]2[C@@H]1N2C(C)=O | 10.8 µM (active) |

Q: Assign AC50 to the following record: CCCCCCCCCCCCCN1CC(C)OC(C)C1 (stereo not drawn)
Result: inactive

Q: Assign AC50 to the following record: Cn1cc(-c2ccccc2)c(=O)c(-c2cccc(C(F)(F)F)c2)c1
Result: inactive

Q: Assign AC50 to the following record: CO[C@@H]1[C@H](OC(=O)NC(=O)CCl)CC[C@]2(CO2)[C@H]1[C@@]1(C)O[C@@H]1CC=C(C)C
Result: inactive
